Where these numbers come from: the supplement of paper PMC7840683

System: HepaRG
Test name: LDH release cytotoxicity, % of total lysis control; higher = more cytotoxic
Condition summary: 10 µM; 48 h
Assay readout: LDH release cytotoxicity
Answer format: value, then unit.

[ask] Item CCCCC(CC)COC(=O)CCCCC(=O)OCC(CC)CCCC (stereo unspecified) [Bis(2-ethylhexyl)hexanedioate] : provide LDH release cytotoxicity
[reply] -2.86%

[ask] Write down LDH release cytotoxicity measured for item CCc1nc(N)nc(N)c1-c1ccc(Cl)cc1
[reply] 4.04%

[ask] Tell me LDH release cytotoxicity reported for O=C(O)CN(CC(=O)O)CC(=O)O
[reply] -2.38%

====

Below, each entry is listed with its recorded LDH release cytotoxicity.
Tested on: HepaRG
Test name: LDH release cytotoxicity, % of total lysis control; higher = more cytotoxic
Condition summary: 3.16228 µM; 48 h
Unit % implied. Number only.

Worked cases, LDH release cytotoxicity given:
| Molecule | LDH release cytotoxicity / % |
| --- | --- |
| Cc1cccc2ccccc12 [1-Methylnaphthalene] | -2.9 |
| CCC(C)c1ccc(O)cc1 (stereo not drawn) [4-(Butan-2-yl)phenol] | -2.86 |

[ask] Consider the molecule CCCC(=O)OCC [Ethyl butyrate] and give its recorded LDH release cytotoxicity.
[reply] -1.92

====

Test system: HepaRG
Test name: LDH release cytotoxicity, % of total lysis control; higher = more cytotoxic
Condition summary: 31.6228 µM; 48 h
Assay readout: LDH release cytotoxicity (%)
All answers are understood in %, so give the number only.

| Compound | Assay readout | Reading unit | Result |
| --- | --- | --- | --- |
| CN(C)C(=S)S [Sodium dimethyldithiocarbamate] | LDH release cytotoxicity | % | 0.196 |
| OCCOc1ccccc1 | LDH release cytotoxicity | % | -0.22 |
| CCCN(CCC)C(=O)SCC | LDH release cytotoxicity | % | 0.312 |
| COC(=O)c1ccccc1C(=O)OC [Dimethyl phthalate] | LDH release cytotoxicity | % | -0.11 |
| CCCCCCCCCCCC(=O)OC [Methyl dodecanoate] | LDH release cytotoxicity | % | -1.41 |

[ask] Using the record for Nc1c(Cl)c(Cl)nc(C(=O)O)c1Cl , state its measured LDH release cytotoxicity.
[reply] -2.11

[ask] Tell me LDH release cytotoxicity reported for ClC(Cl)=C(c1ccc(Cl)cc1)c1ccc(Cl)cc1
[reply] 0.0466

[ask] Please supply the value of reported LDH release cytotoxicity for the item COP(=O)(OC)C(O)C(Cl)(Cl)Cl (stereo unspecified)
[reply] 76.8

[ask] Supply reported LDH release cytotoxicity belonging to this compound: CCCCCCCCCc1ccc(O)cc1
[reply] -0.17

[ask] Respond only with LDH release cytotoxicity recorded for CC(C)c1nnc2ccc(-c3ocnc3-c3cc(F)ccc3F)cn12
[reply] -2.04

[ask] Identify LDH release cytotoxicity associated with the compound N#Cc1ccc(N(CC(N)=O)CC(F)(F)F)cc1C(F)(F)F
[reply] -0.599

[ask] // Input: CNC(=O)Oc1cccc2ccccc12 . Output its LDH release cytotoxicity only.
[reply] 0.246

[ask] Identify measured LDH release cytotoxicity associated with c1ccc(N=Nc2ccccc2)cc1
[reply] 1.14

[ask] Report LDH release cytotoxicity, nothing else, for this compound: CCOP(=S)(Oc1cnc(C(C)(C)C)nc1)OC(C)C (stereo unspecified)
[reply] -2.48

[ask] // Input: COc1cccc(C(O)C2CCN(CCc3ccc(F)cc3)CC2)c1OC (stereo unspecified) . Output its LDH release cytotoxicity only.
[reply] 0.408

====

System: HepaRG
Test name: LDH release cytotoxicity, % of total lysis control; higher = more cytotoxic
Condition summary: 31.6228 µM; 48 h
Assay readout: LDH release cytotoxicity (%)
Give the value in % but do not write % after it.

| Molecule | Reading unit | LDH release cytotoxicity |
| --- | --- | --- |
| CC1(C)C(C=C(Cl)Cl)C1C(=O)OCc1cccc(Oc2ccccc2)c1 (stereo not given) | % | -1.28 |

[ask] Tell me LDH release cytotoxicity of [As]#[In] [Indium arsenide] when tested on HepaRG.
[reply] 0.141

[ask] # return LDH release cytotoxicity of Cc1ccc([N+](=O)[O-])cc1C (system: HepaRG)
[reply] -0.524

====

Test system: HepaRG
Test name: LDH release cytotoxicity, % of total lysis control; higher = more cytotoxic
Condition summary: 1 µM; 48 h
Measured LDH release cytotoxicity by item
Response body: numeric value in %, unit text excluded.

// known answers, use as guide
| Compound | Result |
| --- | --- |
| CCCCNC(=O)n1c(NC(=O)OC)nc2ccccc21 | -2.31 |
| CC1(C)C(C=C(Cl)Cl)C1C(=O)OC(C#N)c1ccc(F)c(Oc2ccccc2)c1 (configuration not stated) | -1.61 |
| CN=C=S [Methyl isothiocyanate] | -4.61 |
| COC(=O)CSc1cc(N=c2sc(=O)n3n2CCCC3)c(F)cc1Cl | -1.73 |
| CCc1nn(C2CCCCC2)c2cc(C3(C#N)CCC(C(=O)O)CC3)ccc12 (configuration not stated) | -1.9 |

[ask] Please indicate LDH release cytotoxicity recorded for Nc1ccc([N+](=O)[O-])cc1
[reply] -1.58

[ask] Answer with the recorded LDH release cytotoxicity for the compound listed here: COC(=O)C=C(C)OP(=O)(OC)OC
[reply] -2.52

[ask] Look up LDH release cytotoxicity of CCC(C)OC(=O)N1CCCCC1CCO (configuration not stated) and report it.
[reply] 5.97

====

Tested on: HepaRG
Test name: LDH release cytotoxicity, % of total lysis control; higher = more cytotoxic
Condition summary: 31.6228 µM; 48 h
We begin with a simple list: items and their reported LDH release cytotoxicity.
# output: bare number, implied unit %

| Molecule | LDH release cytotoxicity [%] |
| --- | --- |
| C[C@](N)(Cc1ccc(O)c(O)c1)C(=O)O [Methyldopa sesquihydrate] | -2.01 |
| Cc1cc(CCN2CCN(c3nsc4ccccc34)CC2)cc2c1NC(=O)CC2(C)C | -0.566 |

# input for lookup
[ask] Tell us which LDH release cytotoxicity value is on record for COP(=O)(OC)OC(Br)C(Cl)(Cl)Br (stereo not drawn)
[reply] -0.943

====

As shown below, each of these compounds has a reported LDH release cytotoxicity value.
System: HepaRG
Test name: LDH release cytotoxicity, % of total lysis control; higher = more cytotoxic
Condition summary: 3.16228 µM; 48 h
Give your result in % as a bare value.

Below: 6 compounds and their reported LDH release cytotoxicity.
| Compound | Reading unit | LDH release cytotoxicity |
| --- | --- | --- |
| Cc1ccccc1COC1CC2(C(C)C)CCC1(C)O2 (stereo unspecified) | % | -1.09 |
| N=C1C=NN(c2ccccc2)C(=O)C1Cl (stereo unspecified) | % | -0.697 |
| CCCN(C1CCN(C(=O)C2CCNCC2)CC1)C1CCc2ccc(OC)cc2C1 (stereo unspecified) | % | -1.79 |
| O=C(O)CCCCC(=O)O | % | -1.55 |
| O=C1c2c(O)cccc2Cc2cccc(O)c21 | % | -0.148 |
| CSc1nnc(C(C)(C)C)c(=O)n1N | % | -1.24 |

[ask] Consider the compound CC(=O)N1CCN(c2ccc(OCC3COC(Cn4ccnc4)(c4ccc(Cl)cc4Cl)O3)cc2)CC1 (stereo unspecified) and give its recorded LDH release cytotoxicity.
[reply] -2.26

[ask] Answer with the recorded LDH release cytotoxicity of CCc1nn(C2CCCCC2)c2cc(C3(C#N)CCC(C(=O)O)CC3)ccc12 (stereo unspecified) only.
[reply] -1.26

[ask] Retrieve LDH release cytotoxicity measured for O=C1C2(Cl)C3(Cl)C4(Cl)C(Cl)(Cl)C5(Cl)C3(Cl)C1(Cl)C5(Cl)C24Cl (stereo unspecified) and print it.
[reply] -0.552

[ask] Identify LDH release cytotoxicity associated with the compound CCCCCCCCCCCC[N+](C)(C)C [Dodecyltrimethylammonium chloride]
[reply] -1.23

[ask] Answer with the recorded LDH release cytotoxicity of CC(C)NC(=O)N1CC(=O)N(c2cc(Cl)cc(Cl)c2)C1=O only.
[reply] -1.29

[ask] Input Cc1nc(-c2ccc3c(c2)CCN(CCC2CCC(NC(=O)C=Cc4ccc(F)cc4)CC2)CC3)no1 (stereo unspecified) , output reported LDH release cytotoxicity.
[reply] -0.696

[ask] Provide measured LDH release cytotoxicity value, entry: c1ccc2c(c1)-c1cccc3cccc-2c13
[reply] -0.593

[ask] Give me measured LDH release cytotoxicity, please, for this compound: O=C1C(=O)C(c2ccc(O)c(O)c2)Oc2cc(O)cc(O)c21 (stereo unspecified)
[reply] -0.569

[ask] Answer with the recorded LDH release cytotoxicity of CCCCOC(=O)C(C)Oc1ccc(Oc2ccc(C(F)(F)F)cn2)cc1 (stereo unspecified) only.
[reply] -0.996

[ask] Identify the reported LDH release cytotoxicity for the following entry. O=C1CN(N=Cc2ccc([N+](=O)[O-])o2)C(=O)N1
[reply] -1.09

[ask] Give the reported LDH release cytotoxicity for this compound. CC1=C(C(=O)Nc2ccccc2)SCCO1
[reply] -1.1

[ask] Identify measured LDH release cytotoxicity corresponding to O=S1(=O)CCCO1
[reply] -1.5

[ask] Write down LDH release cytotoxicity measured for item CCCCCCCCOc1ccc(C(=O)c2ccccc2)c(O)c1
[reply] 0.706

[ask] Note LDH release cytotoxicity for the compound shown: O=C(O)C(Cl)Cl
[reply] -2.6

[ask] Name the recorded LDH release cytotoxicity of the item O=C(NO)C1(NS(=O)(=O)c2ccc(Oc3ccc(F)cc3)cc2)CCOCC1 in your answer.
[reply] -0.318
